Where these numbers come from: ChEMBL document CHEMBL3430912

- Test system: Leishmania donovani
- MEASUREMENT_NOTES: GSK_TCAKS: pIC50 Leishmania donovani Imaging: THP-1 Host Macrophages. Assay plates (384-well) were prepared by adding 250nL of compound to each well. For single shot assay, the final compound concentration was 5 uM. […] Automated image analysis was performed with a script developed on Acapella High Content Imaging and Analysis Software (PerkinElmer). Output: THP-1 cell count were reported for each well.
- Type: functional, organism-based, Homo sapiens
ASSAY_METRIC: IC50

Completed entries (count: 4):
CN1CCCN(C(=O)c2ccc(N3CCCC3)cc2Cl)CC1; > 50.1 µM
Cc1ccc(-c2csc(NC(=O)C=Cc3ccc(S(=O)(=O)N4CCOCC4)cc3)n2)o1; > 50.1 µM
CS(=O)(=O)c1ccccc1C(=O)N(Cc1ccccc1)c1ccccc1; > 50.1 µM
COc1cc(OC)cc(C(=O)N[C@@H](CC(C)C)C(=O)NC2(C#N)CC2)c1; > 50.1 µM

Attention now shifts to the item below.
Missing value: IC50, Leishmania donovani, entry Cc1c(C(C)NC(=O)Nc2cccc(Cl)c2)sc2ncnn12 (stereo not given) . Fill in? > 50.1 µM

====

- Tested on: Trypanosoma brucei brucei
- MEASUREMENT_NOTES: GSK_TCAKS: pIC50 Trypanosoma brucei viability assay using luminiscence. Assay plates (1536-well) were prepared. T. brucei cultures were harvested and counted in a CASY cell counter. A parasite suspension was prepared at a final concentration of 5 * 10^4 cells/mL in complete HMI9 medium and 6uL was dispensed to all wells containing compounds using a Multidrop Combi dispenser. 6uL of HMI9 media with 0.4% DMSO were dispensed to control columns. Plates were incubated for 24 h at 37C, 5% CO2 then tempered for 10 min at room temperature. ATP content was quantified by adding 4 uL of CellTiter-Glo Reagent (Promega) according to the manufacturer's instructions. Luminescence was measured using a ViewLux.
- Assay type: functional, organism-based
- CONDITION: Lister 427, CASY
Labelling field: enter 1 if recorded IC50 is less than 0.4 µM. Enter 0 if it equals or exceeds that cut-off.

CC(=O)Nc1nc(-c2cc(C)ccc2C)c(C)s1; 0

hey, is IC50 for COc1ccc(S(=O)(=O)NC(C)C)cc1Nc1ncc(-c2cccc(F)c2)cn1 lower than 0.4 µM or not? 0

hey, is IC50 for COc1ccccc1-n1c(SCC(=O)Nc2ccc3c(c2)OCO3)nc2c(c1=O)SCC2 lower than 0.4 µM or not? 0

hey, is IC50 for COc1cccc(-c2c(C)nn(-c3nc(N)nc(-c4ccccn4)n3)c2N)c1 lower than 0.4 µM or not? 0

hey, is IC50 for Cc1nn(-c2nc(N)nc(-c3ccccn3)n2)c(N)c1-c1ccccc1 lower than 0.4 µM or not? 0

hey, is IC50 for CC(Cn1ccnc1)NC(=O)COc1ccc(Cl)c(Cl)c1 (stereo not given) lower than 0.4 µM or not? 0

hey, is IC50 for Cc1nn2c(=O)c3c([nH]c2c1-c1ccc(Cl)cc1)CCCC3 lower than 0.4 µM or not? 1

hey, is IC50 for Cc1ccc(NC(C)C(=O)Nc2ccc(C#N)cc2)cc1S(=O)(=O)N1CCCCC1 (stereo not given) lower than 0.4 µM or not? 0

hey, is IC50 for COc1ccc(Nc2nc(N[C@H]3CC[C@H](O)CC3)ncc2Br)c(C(N)=O)c1 lower than 0.4 µM or not? 1
